Reported apparent KD of MS2 coat protein values for a set of sequences
- Test system: MS2 coat protein
- TEST: apparent KD of MS2 coat protein; higher = weaker reporter binding
- REPORTED CONDITIONS: Eterna round: R107; input ligand: arginine 13.2 mM
Quote the value and follow it with the unit of measurement.

Example entries and their recorded answers appear below.
{"MONOMER SEQUENCE": "UUCACGGGCACGGCCGCCACUAACCAACAUGAGGAUCACCCAUGUGUAUUGGACGACCUCUUUGCUAGGACCGGGUGUAUGGUUC [theeternabot_exclusion_MS2_Trp_B_15]", "TESTED SYSTEM": "MS2 coat protein", "apparent KD of MS2 coat protein": "25.3 nM"}
{"MONOMER SEQUENCE": "AAACAUUGCUCAGAUACCAGACAUGAGGAUCACCCAUGUACCAAGGUAACCGAAAGGCAUGUCCCUUGGCAGCUGAGCAAUGAAA [MAT - Exclusion Theophlline B - Mod of Eli - D15]", "TESTED SYSTEM": "MS2 coat protein", "apparent KD of MS2 coat protein": "13.5 nM"}
{"MONOMER SEQUENCE": "CUCCUGGGAGCGGCCGCCACUGGAGGCCUCGCGCGACAUGAGGAUCACCCAUGUUGGCCCGGCCUCAGGACCGGGUUCGCGCGAG [Same State - Tryptophan B Attempt #3]", "TESTED SYSTEM": "MS2 coat protein", "apparent KD of MS2 coat protein": "8.01 nM"}
{"MONOMER SEQUENCE": "GCUGUAAGUGCAGAUACCAGCGUGUUAUAUUUCUAAUGACAUGAGGAUCACCCAUGUAAAUGCCCUUGGCAGCUGCACUUACAGC [SSTHB #7]", "TESTED SYSTEM": "MS2 coat protein", "apparent KD of MS2 coat protein": "13.2 nM"}
{"MONOMER SEQUENCE": "ACAAUAUUGAGUUUGUCUCAAGUUUCAGAAGGAGCGUGAGGAAUCACAGGUAGGUCGCUGAUAACAUGAGGAUCACCCAUGUAUU [JR_SSArginiA_Sub005]", "TESTED SYSTEM": "MS2 coat protein", "apparent KD of MS2 coat protein": "26.1 nM"}
{"MONOMER SEQUENCE": "GAGUUCCUGAGAGAUACCAGUGAGGCCACAUGAGGAUCACCCAUGUCCCUCACUCCGGCCCACCCUUGGCAGCUCGAAAGAUAUU [Exclusion Theophylline B GF 22]", "TESTED SYSTEM": "MS2 coat protein", "apparent KD of MS2 coat protein": "11.3 nM"}

Given GUAUUAAGAAAACUUGAUACAGUGGGUGAACGAGGACCGGUACGGCCGCCACUCGGACAUGAGGAUCACCCAUGUCCAUGUGAAA [AstrosExyTryA#11] , state its recorded apparent KD of MS2 coat protein.
17.4 nM

What value of measured apparent KD of MS2 coat protein is listed for ACAUGAGGAUCACCCAUGUUAUUUACCGAAGGAGCGGGUAUAUACCCAGGUAGGUCGCGGACAACAUGAGGAUCACCCACAUGAG [AstrosSSArgA#21] ?
45.5 nM

Given AUGCGGUGCGGAAGGAGCGAGUUUGCCUAUUACAUGAGGAUCACCCAUGUGGGUAAUGGGACUCAGGUAGGUCGCCGUUGUCGCA [Same State Arginine B GF 28] , state its recorded apparent KD of MS2 coat protein.
41.9 nM

For `UUCAGCUAGUCGGCCGCCACUACAAGAGGAUCACCCUUGUAAUCCUAACACUGCUUCGGCAGUGGUAGGACCGGGACUAGCUGAG` , what is its reported apparent KD of MS2 coat protein?
15.1 nM

Returns the measured apparent KD of MS2 coat protein for the input sequence. Input: AACAUGAGGAUCACCCAUGUGUCCUCGAAACGAGGACCGGUACGGCCGCCACUCGAAAUAAGCUGUUGACGAAAAGUCAGCAGCA [Mat - Exclusion - Trytophan A - D20]
128 nM

Entry under review: AGCCGGAUUACGGCCGCCACUGUAGACGUGACGAAAGUCGCGUCAACAUGAGGAUCACCCAUGUACAGGACCGGGUGGUCCGGCG [Omei Trp B SS A v1] . Reported apparent KD of MS2 coat protein?
15 nM
